Target: T1, cynomolgus IL4Rα/Fc HIS6 (HEK expressed) (cynomolgus monkey)
T1 construct: also called Cyno IL4R; cynomolgus IL-4Rα HIS Fc (in house HEK-EBNA derived); not shown: HIS6 tag
T1 sequence (chain, as listed by the source): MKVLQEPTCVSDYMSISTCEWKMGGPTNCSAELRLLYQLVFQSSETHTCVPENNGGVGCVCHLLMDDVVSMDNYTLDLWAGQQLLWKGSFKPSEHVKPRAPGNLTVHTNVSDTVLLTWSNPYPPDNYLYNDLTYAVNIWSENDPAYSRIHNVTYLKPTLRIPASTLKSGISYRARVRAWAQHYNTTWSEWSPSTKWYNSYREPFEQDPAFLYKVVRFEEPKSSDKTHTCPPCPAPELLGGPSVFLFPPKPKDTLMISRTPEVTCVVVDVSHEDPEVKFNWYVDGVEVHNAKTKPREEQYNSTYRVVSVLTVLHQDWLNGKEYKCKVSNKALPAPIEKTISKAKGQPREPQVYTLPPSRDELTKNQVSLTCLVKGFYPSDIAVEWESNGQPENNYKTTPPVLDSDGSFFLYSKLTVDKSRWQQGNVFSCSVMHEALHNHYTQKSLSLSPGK
Experiment: HTRF receptor-ligand assay, purified scFv against biotinylated cynomolgus IL4
pKi: −log10 of the molar value.
OBSERVED PROPERTY: pKi

# BINDER, OBSERVED VALUE
records = [
    ("Antibody 2 scFv (scFv, V domains shown, tested as purified scFv) VH: QVQLVQSGAEVKKPGASVKVSCKASGYAFTSYYMHWARQAPGQGLEWMGIINPSGGSTSYAQKFQGRVTMTRDTSTSTVYMELSSLRSEDTAVYYCARGKWWLYNWGKGTLVTVSS VL: QSVLTQPPSVSAAPGQKVTISCSGGSSNIGNSYVSWYQQLPGTAPKLLIYDNNKRPSGIPDRFSGSKSGTSATLAITGLQTGDEADYYCGTWDTSQPPNPLFGTGTKLTVL", 8.37),
    ("Antibody 24PGL scFv (scFv, V domains shown, tested as purified scFv) VH: QVQLVQSGAEVKKPGASVKVSCKASGYAFTSYYMHWVRQAPGQGLEWMGIINPRGGSTSYAQKFQGRVTMTRDTSTSTVYMELSSLRSEDTAVYYCARGKYWMYDWGKGTLVTVSS VL: QSVLTQPPSVSAAPGQKVTISCSGGSSNIGNSYVSWYQQLPGTAPKLLIYDNNKRPSGIPDRFSGSKSGTSATLGITGLQTGDEADYFCGTWDTSTVWEWPFGTGTKLTVL", 9.15),
    ("Antibody 7 scFv (scFv, V domains shown, tested as purified scFv) VH: QVQLVQSGAEVKKPGASVKVSCKASGYAFTSYYMHWARQAPGQGLEWMGIINPSGGSTSYAQKFQGRVTMTRDTSTSTVYMELSSLRSEDTAVYYCARGKWWWQYWGKGTLVTVSS VL: QSVLTQPPSVSAAPGQKVTISCSGGSSNIGNSYVSWYQQLPGTAPKLLIYDNNKRPSGIPDRFSGSKSGTSATLAITGLQTGDEADYYCGTWDTSSPPQPIFGTGTKLTVL", 7.78),
    ("Antibody 32 scFv (scFv, V domains shown, tested as purified scFv) VH: QVQLVQSGAEVKKPGASVKVSCKASGYAFTSYYMHWARQAPGQGLEWMGIINPSGGSTSYAQKFQGRVTMTRDTSTSTVYMELSSLRSEDTAVYYCARGKYWMYDWGKGTLVTVSS VL: QSVLTQPPSVSAAPGQKVTISCSGGSSNIGNSYVSWYQQLPGTAPKLLIYDNNKRPSGIPDRFSGSKSGTSATLAITGLQTGDEADYFCGTWDTSTAWEWPFGTGTKLTVL", 8.89),
    ("Antibody 25 scFv (scFv, V domains shown, tested as purified scFv) VH: QVQLVQSGAEVKKPGASVKVSCKASGYAFTSYYMHWARQAPGQGLEWMGIINPRGGSASYAQKFQGRVSMTRDTSTSTVYMELSSLRSEDTAVYYCARGKYWMYDWGKGTLVTVSS VL: QSVLTQPPSVSAAPGQKVTISCSGGSSNIGNSYVSWYQQLPGTAPKLLIYDNNKRPSGIPDRFSGSKSGTTATLAITGLQTGDEADYYCGTWVTSTVWEWPFGTGTKLTVL", 8.89),
    ("Antibody 14 scFv (scFv, V domains shown, tested as purified scFv) VH: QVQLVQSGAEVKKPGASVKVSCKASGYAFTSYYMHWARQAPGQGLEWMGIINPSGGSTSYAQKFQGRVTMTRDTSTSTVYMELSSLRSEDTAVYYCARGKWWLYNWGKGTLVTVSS VL: QSVLTQPPSVSAAPGQKVTISCSGGSSNIGNSYVSWYQQLPGTAPKLLIYDNNKRPSGIPDRFSGSKSGTSATLAITGLQTGDEADYYCGTWDTSPPTKPLFGTGTKLTVL", 7.56),
    ("Antibody 24 scFv (scFv, V domains shown, tested as purified scFv) VH: QVQLVQSGAEVKKPGASVKVSCKASGYAFTSYYMHWARQAPGQGLEWMGIINPRGGSTSYAQKFQGRVTMTRDTSTSTVYMELSSLRSEDTAVYYCARGKYWMYDWGKGTLVTVSS VL: QSVLTQPPSVSAAPGQKVTISCSGGSSNIGNSYVSWYQQLPGTAPKLLIYDNNKRPSGIPDRFSGSKSGTSATLAITGLQTGDEADYFCGTWDTSTVWEWPFGTGTKLTVL", 9.10),
    ("Antibody 27 scFv (scFv, V domains shown, tested as purified scFv) VH: QVQLVQSGAEVRKPGASVKVSCKASGYAFTSYYMHWARQAPGQGLEWMGIINPSGGSTSYAQKFQGRVTMTRDTSTSTVYMELSSLRPEDTAVYYCARGKYWMYDWGKGTQVTVSS VL: QSVLTQPPLVSAAPGQKVTISCSGGSSNIGNSYVSWYQRLPGTAPKLLIYDNNKRPSGIPDRFSGSKSGTSATLAITGLQTGDEADYYCGTWDTSTVWEWPFGTGTKLTVL", 8.55),
    ("Antibody 19 scFv (scFv, V domains shown, tested as purified scFv) VH: QVQLVQSGAEVKKPGASVKVSCKASGYAFTSYYMHWARQAPGQGLEWMGIINPSGGSTSYAQKFQGRVTMTRDTSTSTVYMELSSLRSEDTAVYYCARGKWWWQHWGKGTLVTVSS VL: QSVLTQPPSVSAAPGQKVTISCSGGSSNIGNSYVSWYQQLPGTAPKLLIYDNNKRPSGIPDRFSGSKSGTSATLAITGLQTGDEADYYCGTWDTSTTYHPIFGTGTKLTVL", 7.73),
    ("Antibody 5 scFv (scFv, V domains shown, tested as purified scFv) VH: QVQLVQSGAEVKKPGASVKVSCKASGYAFTSYYMHWARQAPGQGLEWMGIINPSGGSTSYAQKFQGRVTMTRDTSTSTVYMELSSLRSEDTAVYYCARGKWWLYDWGKGTLVTVSS VL: QSVLTQPPSVSAAPGQKVTISCSGGSSNIGNSYVSWYQQLPGTAPKLLIYDNNKRPSGIPDRFSGSKSGTSATLAITGLQTGDEADYYCGTWDTSSPPQPIFGTGTKLTVL", 8.42),
]
